# Tested on: Zymoseptoria tritici (SEPTTR-184)
# protocol_notes: Cyp51 dsRNA tile (fragment) foliar application bioassay (Example 6)
# Format: in vivo
# measurement_context: 1 day protectant; rate 50 ppm; average of 2 trials
assay_readout: Disease Control (%) SEPTTR-184 1DP
Answers are plain numbers, in %.

MgCyp51-T4: dsRNA tile of Zymoseptoria tritici Cyp51, 178 bp, location 647-824 (nucleic acid, listed as Zymoseptoria tritici) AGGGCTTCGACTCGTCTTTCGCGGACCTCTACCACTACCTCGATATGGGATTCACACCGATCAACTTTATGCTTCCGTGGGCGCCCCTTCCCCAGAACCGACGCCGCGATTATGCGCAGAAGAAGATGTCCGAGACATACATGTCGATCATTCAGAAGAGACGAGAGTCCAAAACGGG: 61

Query: Recorded Disease Control (%) SEPTTR-184 1DP for MgCyp51-T12: dsRNA tile of Zymoseptoria tritici Cyp51, 138 bp, location 1377-1514 (nucleic acid, listed as Zymoseptoria tritici) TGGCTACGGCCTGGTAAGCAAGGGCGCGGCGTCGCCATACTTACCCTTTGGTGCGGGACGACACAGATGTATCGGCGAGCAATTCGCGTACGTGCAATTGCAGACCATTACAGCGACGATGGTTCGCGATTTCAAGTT , please?
Response: 63
